Reference source: PubChem BioAssay (NCATS)

EXPERIMENTAL PROTOCOL: qHTS for identification of novel therapeutic agents for treatment of microphthalmiaassociated transcription factor (MiT) renal cell carcinoma (RCC) (AID 1963991);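 further: curves scaled with 100% = DMSO viability and 0% = empty wells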
COND: TFE3-RCC viability, CellTiter-Glo, 48 h; measured here: UOK124 Z-AUC; stronger effect = lower value
Experimental: PI: Marston Linehan Ph.D. Urologic Oncology Branch, Center for Cancer Research (CCR) National Cancer Institute (NCI), National Institute of Health (NIH), Bethesda, Maryland […] 6; Detection; Luminescence; ViewLux plate reader (PerkinElmer). […] 1. Quantitative high-throughput screening (qHTS) of 1912 pharmacologically defined small molecule compounds was conducted on three TFE3-fusion cell lines bearing three different fusion partners (UOK109, UOK124, UOK145). […]
Results filed as inconclusive are left out.
Please assign Criterion not met whenever z-score is at or above 0.08, and Criterion met whenever it is below.

Here's what some known entries look like.
>>> category_label("NC(=O)c1ncn([C@@H]2O[C@H](CO)[C@@H](O)[C@@H]2O)c1N")
"Criterion not met"
>>> category_label("CC[C@H](CC[C@@H](C)[C@H]1CC[C@H]2[C@@H]3CC=C4C[C@@H](O)CC[C@]4(C)[C@@H]3CC[C@]12C)C(C)C")
"Criterion not met"
>>> category_label("CC(=O)C1=C(O)C=C2Oc3c(C(C)=O)c(O)c(C)c(O)c3C2(C)C1=O (stereo not drawn)")
"Criterion not met"
>>> category_label("COC[C@H](NC(=O)c1cnc(C)s1)C(=O)N[C@@H](COC)C(=O)N[C@@H](Cc1ccccc1)C(=O)[C@@]1(C)CO1")
"Criterion met"
>>> category_label("Cn1cc(C[C@@H](N)C(=O)O)c2ccccc21")
"Criterion not met"

Given the entry Cn1cc(-c2ccc3ncc(Cc4ccc5ncccc5c4)n3n2)cn1 , would its reported z-score be below 0.08?
Criterion not met

Given the entry C=C1CCC2[C@](C)(CO)C(O)CC[C@]2(C)C1CC=C1C(=O)OCC1O (stereo partly drawn) , would its reported z-score be below 0.08?
Criterion met

Given the entry O=C(Nc1ccc(Oc2ccnc3[nH]ccc23)c(F)c1)c1cccn(-c2ccc(F)cc2)c1=O , would its reported z-score be below 0.08?
Criterion met

----------
EXPERIMENTAL PROTOCOL: qHTS of pediatric cancer cell lines to identify multiple opportunities for drug repurposing: Primary screen for SJ-GBM2 cells (AID 1347091)
COND: SJ-GBM2 viability, CellTiter-Glo luminescence, 48 h; series mostly up to 46 µM
Method: Drug repurposing or repositioning has been offered as a strategy for drug development in oncology programs. […] [1] Shen, M et al. Quantitative high-throughput phenotypic screening of pediatric cancer cell lines identifies multiple opportunities for drug repurposing. […] Cells were assayed in growth media at a density of 500-1,000 cells/well. […] After a 15 min incubation at room temperature, samples were analyzed for luminescence intensity using a ViewLux High-throughput CCD imager equipped with clear filters.
Inconclusive results are not listed. Calls of active or inactive are those of the source. Calls come from the whole dose curve; as a rule, active = well fitted cell-killing curve with a large enough effect; inconclusive = small, poorly fitted or top-dose-only effect; inactive = no such curve, though single readings can be large or run the other way.
Hi there, use one of these labels in your reply, thanks! t = active, f = inactive

Here's what some known entries look like.
>>> category_label("Nc1nc(=O)n([C@H]2C[C@H](O)[C@@H](CO)O2)cc1F")
"f"
>>> category_label("CN(C)CCN1C(=O)c2cccc3cc(N)cc(c23)C1=O")
"t"
>>> category_label("CCOC(=O)C1=C(C)NC(=S)NC1c1cccc(O)c1 (stereo not given)")
"t"
>>> category_label("COc1cc(OC)cc(-c2ccc3ncc4ccc(=O)n(-c5ccc(N6CCNCC6)c(C(F)(F)F)c5)c4c3c2)c1")
"t"

Then there is this compound:
Record lookup: outcome of this test for COc1cccc2c1C(=O)c1c(O)c3c(c(O)c1C2=O)C[C@@](O)(C(=O)CO)C[C@@H]3O[C@H]1C[C@H](N)[C@@H](O)[C@H](C)O1 ?
t

----------
EXPERIMENTAL PROTOCOL: Quantitative High-Throughput drug screen in 47 multiple myeloma cell lines against the NCATS MIPE library collection: EJM_DSMZ cell viability assay (AID 1918926; further: nearly all actives have a fitted effect of over 30% in size; further: potency means the concentration at half of the fitted maximal effect)
COND: EJM myeloma cell viability, CellTiter-Glo ATP, 48 h; series mostly up to 45.8 µM
Results filed as inconclusive are left out. The source made the active and inactive calls. Calls follow the shape of the dose curve; as a rule, active = well fitted cell-killing curve with a large enough effect; inconclusive = small, poorly fitted or top-dose-only effect, or effect the other way; inactive = no such curve, though single readings can be large or run the other way.
REPORTED ENDPOINT: Potency

For orientation, consider the following solved cases.
>>> reading("Cc1ccc(O)c(C(CCN(C(C)C)C(C)C)c2ccccc2)c1 (centres undefined)")
"0.0017 µM (active)"
>>> reading("Cn1cc(CNCC2CCN(c3ncc(C(=O)NO)cn3)CC2)c2ccccc21")
"0.0526 µM (active)"
>>> reading("O=c1c(O)c(-c2ccc(O)c(O)c2)oc2cc(O)ccc12")
"20.9 µM (active)"
>>> reading("C=C(C)[C@@H]1CC[C@]2(C)CC[C@]3(C)[C@H](CC[C@@H]4[C@@]5(C)CC[C@H](O)C(C)(C)[C@H]5CC[C@]43C)[C@@H]12")
"inactive"
>>> reading("C[C@H](NC(=O)Cc1cc(F)cc(F)c1)C(=O)N[C@H](C(=O)OC(C)(C)C)c1ccccc1")
"inactive"

Look up Potency: C=CC(=O)N1CCc2ccc(-n3c(=O)ccc4cnc5ccc(-c6cnn(C)c6)cc5c43)cc21
3.72 µM (active)

Look up Potency: CC(O)(C#Cc1ccc2c(c1)N(c1nc(N)ncc1Cl)CC2)c1nccs1 (centres undefined)
11.8 µM (active)

Look up Potency: O=C(C=CC#Cc1cccc(NS(=O)(=O)c2ccccc2)c1)NO
5.9 µM (active)

Look up Potency: c1ccc(CNc2nc(NCc3ccccc3)c3ccccc3n2)cc1
18.7 µM (active)

Look up Potency: CCOC(=O)[C@H](CCc1ccccc1)N[C@@H](C)C(=O)N1[C@@H](C(=O)O)C[C@H]2CCC[C@@H]21
20.9 µM (active)

----------
EXPERIMENTAL PROTOCOL: qHTS of pediatric cancer cell lines to identify multiple opportunities for drug repurposing: Primary screen for RD cells (AID 1347104); further: nearly all actives have a fitted effect of over 55% in size
COND: RD rhabdomyosarcoma viability, CellTiter-Glo luminescence, 48 h; series mostly up to 46 µM
Records with an inconclusive call do not appear. Activity calls are given as the source filed them. Calls come from the whole dose curve; as a rule, active = well fitted cell-killing curve with a large enough effect; inconclusive = small, poorly fitted or top-dose-only effect; inactive = flat fitted curve, though single readings scatter.
Hi there, use one of these labels in your reply, thanks! 1 = active, 0 = inactive

Here's what some known entries look like.
>>> category_label("CC(Oc1ccc(O)cc1)(P(=O)(O)O)P(=O)(O)O")
0
>>> category_label("C=CC(=O)Nc1ccc2ncnc(Nc3ccc(OCc4cccc(F)c4)c(Cl)c3)c2c1")
1
>>> category_label("C=CC(=O)N1CCc2ccc(-n3c(=O)ccc4cnc5ccc(-c6cnn(C)c6)cc5c43)cc21")
1
>>> category_label("FC(F)c1nc2ccccc2n1-c1nc(N2CCOCC2)nc(N2CCOCC2)n1")
1

Record lookup: outcome of this test for Cc1[nH]c(C=C2C(=O)Nc3ccccc32)c(C)c1CCC(=O)O ?
1

Record lookup: outcome of this test for Cn1cc(CNCC2CCN(c3ncc(C(=O)NO)cn3)CC2)c2ccccc21 ?
1

Record lookup: outcome of this test for C[C@@H](NCc1cc2ccccc2[nH]1)c1cccc2ccccc12 ?
0

Record lookup: outcome of this test for CNC(=O)c1cccc(-c2ccc3c(N4CCOC[C@H]4C)nc(N4CCOC[C@H]4C)nc3n2)c1 ?
1

Record lookup: outcome of this test for CC[C@H]1OC(=O)[C@H](C)[C@@H](O[C@H]2C[C@@](C)(OC)[C@@H](O)[C@H](C)O2)[C@H](C)[C@@H](O[C@@H]2O[C@@H](C)C[C@H](N(C)C)[C@@H]2O)[C@](C)(O)C[C@@H](C)C(=O)[C@H](C)[C@@H](O)[C@]1(C)O ?
0

Record lookup: outcome of this test for FC(F)(F)c1ccc(Nc2nc3ccc(Oc4ccnc(-c5ncc(C(F)(F)F)[nH]5)c4)cc3[nH]2)cc1 ?
1

Record lookup: outcome of this test for CC(=O)NC(CS)C(=O)O (stereo not given) ?
0

Record lookup: outcome of this test for C[C@@H]1CC[C@@]2(OC1)OC1CC3C4CC=C5CC(O)CCC5(C)C4CCC3(C)C1[C@@H]2C (stereo not given in full) ?
0

----------
EXPERIMENTAL PROTOCOL: qHTS of pediatric cancer cell lines to identify multiple opportunities for drug repurposing: Primary screen for SK-N-MC cells (AID 1347093)
COND: SK-N-MC viability, CellTiter-Glo luminescence, 48 h; series mostly up to 46 µM
Records with an inconclusive call do not appear. The source made the active and inactive calls. Calls come from the whole dose curve; as a rule, active = well fitted cell-killing curve with a large enough effect; inconclusive = small, poorly fitted or top-dose-only effect; inactive = no such curve, though single readings can be large or run the other way.
Hi there, use one of these labels in your reply, thanks! active, inactive

>>> category_label("c1cc(N[C@@H]2CCNC2)nc(-c2cnc3ccc(-c4cn[nH]c4)cn23)c1")
"active"
>>> category_label("Cc1nc(NC(=O)N2CCC[C@@H]2C(N)=O)sc1-c1ccnc(C(C)(C)C(F)(F)F)c1")
"active"

Record lookup: outcome of this test for CCOC(=O)N1CCN([N+]([O-])=NOc2ccc([N+](=O)[O-])cc2C#N)CC1 ?
active

Record lookup: outcome of this test for COC[C@H](NC(=O)c1cnc(C)s1)C(=O)N[C@@H](COC)C(=O)N[C@@H](Cc1ccccc1)C(=O)[C@@]1(C)CO1 ?
active

Record lookup: outcome of this test for c1cncc(CN2CCC(n3ncc4c(N5CCOCC5)nc(-c5ccc6[nH]ccc6c5)nc43)CC2)c1 ?
active

Record lookup: outcome of this test for c1ccc2c(Oc3nc(Nc4ccc(N5CCOCC5)cc4)c4ncn(C5CCCCC5)c4n3)cccc2c1 ?
active

Record lookup: outcome of this test for COC(=O)[C@H](CCCN=C(N)N)NS(=O)(=O)c1ccc(C)cc1 ?
inactive

Record lookup: outcome of this test for NC(=O)Nc1sc(-c2ccc(F)cc2)cc1C(N)=O ?
active

Record lookup: outcome of this test for COC(=O)C1C2CC3c4[nH]c5cc(OC)ccc5c4CCN3CC2CC(OC(=O)c2cc(OC)c(OC)c(OC)c2)C1OC (stereo not given) ?
active

Record lookup: outcome of this test for Cc1cnc(Nc2ccc(N3CCN(C)CC3)cc2)nc1Nc1cccc(S(=O)(=O)NC(C)(C)C)c1 ?
active
